Below, each of the compounds is paired with its reported melting point value.
quantityKind: melting point

[[record]]
compound = "COc1cccc(Cc2cc(F)ccc2O)c1"
reportedvalue = "153 to 155 °C"

[[record]]
compound = "CC(O)c1cc2c(o1)C(=O)c1cccc(O)c1C2=O (stereo not given)"
reportedvalue = "148 to 149 °C"

[[record]]
compound = "CC(=O)CC(=O)N1CCc2cc(C(O)(C(F)(F)F)C(F)(F)F)ccc21"
reportedvalue = "150 to 151 °C"

[[record]]
compound = "CNc1cc(N2CCN(C(=O)N3CCN(S(=O)(=O)c4ccc(C(F)(F)F)cc4)CC3)CC2)ncn1"
reportedvalue = "230 to 231 °C"

[[record]]
compound = "COc1ccccc1COc1ccc(S(=O)(=O)c2ccc(C)nc2Nc2c(C)cc(C)cc2C)cc1"
reportedvalue = "148 to 150 °C"

[[record]]
compound = "O=C(O)COc1ccc(OC(F)(F)F)cc1C(=S)NCc1cccc([N+](=O)[O-])c1"
reportedvalue = "158 to 161 °C"

[[record]]
compound = "COC(=O)CS(=O)C(C)c1ccc(-c2ccccc2F)cc1 (stereo not given)"
reportedvalue = "79 °C"

[[record]]
compound = "O=c1[nH]c2ccc(Cl)cc2n1CCCCl"
reportedvalue = "122 °C"

[[record]]
compound = "CCOC(=O)Cc1nc(-c2ccc(Cl)cc2)oc1-c1ccco1"
reportedvalue = "105 to 106 °C"

[[record]]
compound = "CCOC(=O)c1cn(C2CC2)c2c(Cl)c(F)ccc2c1=O"
reportedvalue = "149 to 153 °C"


---

quantityKind: melting point

[[record]]
compound = "Cn1ncnc1COc1nc2c(cc1-c1ccsc1)nnn2-c1ccccc1F"
quantitykind = "melting point"
reportedvalue = "133 to 135 °C"

[[record]]
compound = "COc1cc2cc(CO)c(CO)c(-c3ccnc(-n4c(=O)cc(C(=O)N5CCN(CCO)CC5)c5ccccc54)c3)c2cc1OC"
quantitykind = "melting point"
reportedvalue = "150 to 153 °C"

[[record]]
compound = "C[C@@]1(NC(=O)c2cc3cccc4c3n2CCC4)C(=O)N(c2ccccc2F)c2ccccc21"
quantitykind = "melting point"
reportedvalue = "194 to 195 °C"

[[record]]
compound = "CCn1cccc1C(N)=S"
quantitykind = "melting point"
reportedvalue = "71.5 to 74.5 °C"

[[record]]
compound = "CCOC(=O)Cc1ccc(NC(=O)C(COc2ccc(Cl)cc2)NS(=O)(=O)c2ccc(Cl)cc2)cc1 (racemic)"
quantitykind = "melting point"
reportedvalue = "136 to 138 °C"

[[record]]
compound = "CCOC(=O)c1cc(Cl)n2nc(C)nc2n1"
quantitykind = "melting point"
reportedvalue = "134 to 136 °C"

[[record]]
compound = "CCCCc1nc2c(N)nc3ccccc3c2n1CCNC(=O)CCCCC1SCC2NC(=N)NC21 (stereo unspecified)"
quantitykind = "melting point"
reportedvalue = "95 to 96 °C"

[[record]]
compound = "O=C(c1ccccc1)N1CCn2c(CN3CCCCC3)ccc2C1"
quantitykind = "melting point"
reportedvalue = "95 to 96 °C"

[[record]]
compound = "Nc1nc(S(N)(=O)=O)c2ncn(C3OC(CO)C(O)C3O)c2n1 (stereo unspecified)"
quantitykind = "melting point"
reportedvalue = "> 193 °C"

[[record]]
compound = "CCCn1cnc(COc2nn3c(-c4ccccc4)nnc3cc2-c2ccccc2)n1"
quantitykind = "melting point"
reportedvalue = "212 to 214 °C"

[[record]]
compound = "CC(C)c1nc(COC(N)=O)n(Cc2ccccn2)c1Sc1cc(Cl)cc(Cl)c1"
quantitykind = "melting point"
reportedvalue = "127 to 130 °C"

[[record]]
compound = "CN1CCC=C(c2nnn(C)n2)C1"
quantitykind = "melting point"
reportedvalue = "86 to 87 °C"

[[record]]
compound = "COc1cc(C)c2c(c1OC)CCC1C(=O)NC(=O)C21 (stereo unspecified)"
quantitykind = "melting point"
reportedvalue = "179 to 181 °C"

[[record]]
compound = "O=C(OC1CCCCC1)c1ncn2c1[C@@H]1CCCN1C(=O)c1c(Cl)cccc1-2"
quantitykind = "melting point"
reportedvalue = "166 to 167 °C"

[[record]]
compound = "Cc1cc(=O)oc2nn(Cc3cccnc3)c(C)c12"
quantitykind = "melting point"
reportedvalue = "191 to 193 °C"

[[record]]
compound = "COc1ccc(OC)c2c1C(=O)C=C(SCCCCO)C2=O"
quantitykind = "melting point"
reportedvalue = "122 to 123 °C"

[[record]]
compound = "CC(Cc1ccc(OCC(N)=O)cc1)NCC(O)c1ccccc1 (stereo unspecified)"
quantitykind = "melting point"
reportedvalue = "158 to 162 °C"

[[record]]
compound = "CC(=O)c1cc(F)cc(C#N)c1F"
quantitykind = "melting point"
reportedvalue = "80 to 83 °C"

[[record]]
compound = "C=C(Cl)CSC1=C(O)CC(C)(C)CC1=O"
quantitykind = "melting point"
reportedvalue = "103 to 106 °C"

[[record]]
compound = "O=C(NC(Cc1ccccc1)C(=O)O)OCc1ccc(CCCc2ccccc2)cc1 (stereo unspecified)"
quantitykind = "melting point"
reportedvalue = "135 °C"

[[record]]
compound = "CC(C)n1c(=O)nc(-c2ccc3c(c2)OCCO3)c2cc3c(cc21)OCO3"
quantitykind = "melting point"
reportedvalue = "214 to 217 °C"


---

Below, each of the compounds is paired with its reported melting point value.
quantityKind: melting point

[[record]]
compound = "Cc1ccc(Oc2cccc(CC(=O)O)c2N)cc1C"
reportedvalue = "90 to 92 °C"

[[record]]
compound = "CCOC(=O)CC1(c2ccccc2OCC)C(=O)Nc2ccc(Cl)cc21 (centres undefined)"
reportedvalue = "181 °C"

[[record]]
compound = "Nc1sc2c(c1C(=O)c1ccc(Cl)cc1)CCN(CCc1ccccc1)C2"
reportedvalue = "148 to 150 °C"

[[record]]
compound = "CCC(=O)Nc1cccc(NC(=O)CC(C)(OC)OC)c1"
reportedvalue = "115 °C"

[[record]]
compound = "CC(CN1C(=O)C2(COc3cc4c(cc32)CCO4)c2ccccc21)OCOCc1ccccc1 (centres undefined)"
reportedvalue = "49 to 52 °C"

[[record]]
compound = "Cc1ccccc1Oc1ccccc1C(=O)O"
reportedvalue = "133 to 134 °C"

[[record]]
compound = "c1csc(-c2ncc(COc3ccc(CCCCn4ccnc4)cc3)s2)c1"
reportedvalue = "128 to 129 °C"

[[record]]
compound = "O=C(Nc1ccc(CCCCC2(C(=O)NCC(F)(F)F)c3ccccc3-c3ccccc32)nc1)c1ccccc1"
reportedvalue = "109 to 113 °C"

[[record]]
compound = "O=C(O)CCNc1ccc(-c2ccc3nnn(Cc4ccc5ncccc5c4)c3n2)cc1F"
reportedvalue = "132 to 135 °C"


---

Residues, ends and D or L forms follow the SMILES beside them. *: point of attachment. Boc = CC(C)(C)OC(=O)*; OBn = c1ccc(CO*)cc1; βAla = NCCC(=O)O
quantityKind: melting point

[[record]]
compound = "O=Cc1cccc2ncc(-c3ccccc3)nc12"
reportedvalue = "149 °C"

[[record]]
compound = "CC(=O)C1CCCNC1=O (centres undefined)"
reportedvalue = "101 to 103 °C"

[[record]]
compound = "c1ccc2cc(-c3cc4nccnc4[nH]3)ncc2c1"
reportedvalue = "281 to 285 °C"

[[record]]
compound = "COc1ccc(C(OCC2OC(n3cc(C)c(=O)[nH]c3=O)CC2O[Si](C)(C)C(C)(C)C)(c2ccccc2)c2ccc(OC)cc2)cc1 (centres undefined)"
reportedvalue = "214 °C"

[[record]]
compound = "COc1cc(OCCO)c([N+](=O)[O-])cc1[N+](=O)[O-]"
reportedvalue = "137 to 140 °C"

[[record]]
compound = "COc1ccccc1N1CCN(CCn2cnc3sc4c(c3c2=O)CCN(C(C)=O)C4)CC1"
reportedvalue = "170 to 172 °C"

[[record]]
compound = "Cc1nc2c(o1)-c1c(SC(C)C)sc(C(N)=O)c1CC2"
reportedvalue = "230 to 231 °C"

[[record]]
compound = "CCOC(=O)/C=C/c1ccc(OCCOC)c(C)c1OCc1ccc(Cl)cc1Cl"
reportedvalue = "92 to 92.5 °C"

[[record]]
compound = "COC(=O)c1ccccc1Oc1ccc([N+](=O)[O-])cc1"
reportedvalue = "74 °C"

[[record]]
compound = "CC(C)C[C@H](NC1CCCCC1)C(=O)N1CCN(C(c2ccc(F)cc2)c2ccc(F)cc2)CC1"
reportedvalue = "45 to 54 °C"

[[record]]
compound = "CCOC(=O)C(CO)NC(=O)C(CC(=O)OCc1ccccc1)NC(=O)CCNC(=O)OC(C)(C)C (centres undefined) ({Boc-βAla}-Asp(OBn)-Ser-OEt; configuration not given here)"
reportedvalue = "132 to 134 °C"

[[record]]
compound = "O=C(CO/N=C(\\C(=O)O)c1ccco1)NOC(c1ccccc1)c1ccccc1"
reportedvalue = "138 to 140 °C"

[[record]]
compound = "CCc1ncc2n1N=C(c1ccc(N)cc1)c1cc3c(cc1C2)OCO3"
reportedvalue = "135 to 138 °C"

[[record]]
compound = "Cc1ccc(-c2ccccc2)cc1Cn1c(C(F)F)nn(C)c1=O"
reportedvalue = "72.7 °C"

[[record]]
compound = "COc1ccc(-c2c3c(cc4ccc(OC(C)C)cc24)C(=O)NC3)cc1"
reportedvalue = "212 to 215 °C"

[[record]]
compound = "COc1ccccc1N1CCN(CCCC2CCc3onc(-c4ccc(F)cc4)c3C2=O)CC1 (centres undefined)"
reportedvalue = "107 to 108 °C"

[[record]]
compound = "O=C(CNC(=O)c1ccccc1)NC1CCN(CCc2c[nH]c3ccccc23)CC1"
reportedvalue = "236 to 240 °C"

[[record]]
compound = "CS(=O)(=O)c1ccc(C2=C(c3ccc(F)cc3)CC3(CCCC3)C2)cc1"
reportedvalue = "142 to 143 °C"

[[record]]
compound = "CN(C)C(=O)C(CCO)C1(C)OCCc2c1[nH]c1ccccc21 (centres undefined)"
reportedvalue = "158 to 160 °C"

